# Tested on: HOP-62 NSCLC
# assay_comment: NCI tumour cell line growth inhibition, 48 h
measurement_name: TGI

# annotated cases, reported TGI shown
>  <molecule>
CCCCCCCCCCCCCC(=O)NCC(OCC)OCC

>  <meas_value>
> 100 µM

$$$$
>  <molecule>
COc1cc(C2c3cc4c(cc3[C@@H](N(C)C)[C@H]3COC(=O)C23)OCO4)cc(OC)c1O (stereo partly specified)

>  <meas_value>
> 100 µM

$$$$
>  <molecule>
COC(=O)[C@H]1N[C@@H](C(=O)OC)C23CCC[C@H]2CC[C@]1(C(OC)OC)C3

>  <meas_value>
> 100 µM

$$$$
>  <molecule>
CCn1c(=O)c2c3ccc(OC(C)=O)cc3[nH]c2c2ccc(OC(C)=O)cc21

>  <meas_value>
> 100 µM

$$$$

Input COc1cc2c(c(OC)c1)C(=O)O[C@H](C)CCCC/C=C/C2 , output reported TGI.
24.7 µM

Look up and report measured TGI for this entry: CCCCNC(=O)Oc1ccc(/C(=C(/CC)Cc2ccccc2)c2ccc(OCCN3CCCCCC3)cc2)cc1
> 100 µM

* * *

# System: HOP-18 NSCLC
# assay_comment: NCI tumour cell line growth inhibition, 48 h
measurement_name: TGI

>  <compound>
O=C(O)Cc1ccccc1CCc1ccccc1Cl

>  <tgt>
HOP-18 NSCLC

>  <TGI>
> 100 µM

$$$$
>  <compound>
NC(=O)c1csc(C2CCC(CO)O2)n1 (stereo unspecified)

>  <tgt>
HOP-18 NSCLC

>  <TGI>
> 100 µM

$$$$
>  <compound>
Nc1cc2[nH]cnc2c(=O)[nH]1

>  <tgt>
HOP-18 NSCLC

>  <TGI>
> 300 µM

$$$$
>  <compound>
COc1cc(C2c3cc4c(cc3[C@@H](OCCN(C)C)C3COC(=O)[C@H]23)OCO4)cc(OC)c1O (stereo partly specified)

>  <tgt>
HOP-18 NSCLC

>  <TGI>
4.36 µM

$$$$
>  <compound>
COC(=O)c1ccc(C(=O)OC)c2nc3cc(C)ccc3nc12

>  <tgt>
HOP-18 NSCLC

>  <TGI>
> 100 µM

$$$$

Query compound follows.
Tell me measured TGI for Cc1c(C(=O)CC(=O)C(=O)Nc2cc(Cl)ccc2Cl)[n+](=O)c2ccccc2n1[O-] please.
> 100 µM

* * *

# Tested on: RPMI-8226 leukemia
# assay_comment: NCI tumour cell line growth inhibition, 48 h
measurement_name: TGI

Some entries whose results are on file:
>  <compound>
O=[N+]([O-])c1ccc2c(c1)n1c(N3CCCC3)[n+]3ccccc3c1c1c3cccc[n+]3c(N3CCCC3)n21

>  <TGI>
> 100 µM

$$$$
>  <compound>
O=c1c(O)cccn1C1OC(CO)C(O)C1O (stereo not given)

>  <TGI>
> 100 µM

$$$$
>  <compound>
C[C@]12CC[C@H]3[C@@H](CC[C@]4(O)C[C@@H](O)CC[C@]34CO)[C@@]1(O)CC[C@@H]2C1=CC(=O)OC1

>  <TGI>
6.83 µM

$$$$
>  <compound>
CC(=O)c1cccc(-c2cccc(-c3ccn(CCN4CCOCC4)n3)c2)c1

>  <TGI>
> 20 µM

$$$$

Give TGI for the following compound: C=CCCCCn1c2ccccc2c2c(C)c3cnccc3c(C)c21
12.8 µM

Return TGI (reported value) for this compound: Cc1nn(CNc2ccccc2C(F)(F)F)c(=S)n1/N=C/c1ccc(F)cc1
> 100 µM

Provide measured TGI value, entry: Cc1c(C#N)c(=N)oc2ccccc12
> 100 µM

Quick one: give measured TGI for CCOC(=O)c1c(-c2ccccc2)c(C(OC(c2ccccc2)c2c(-c3ccccc3)c(C(=O)OCC)n3ccccc23)c2ccccc2)c2ccccn12 (stereo not given)
> 100 µM

Provide one value: measured TGI of Nc1cc2[nH]cnc2c(=O)[nH]1
> 300 µM

Fill in reported TGI for this entry: O=C(N/N=C/c1ccc(Cl)cc1)c1[nH]c2ccc(Cl)cc2c1-c1ccccc1
0.0556 µM

Please list TGI recorded for the compound O=NN1CCCS1(=O)=O
> 100 µM

Answer with the recorded TGI for the compound listed here: Cc1c(C(=O)CC(=O)C(=O)Nc2cc(Cl)ccc2Cl)[n+](=O)c2ccccc2n1[O-]
57.8 µM

Please give measured TGI of the following entry: O=C(O)CCSC1=NCCN1
> 100 µM

Please report TGI for the following compound: COc1ccccc1NC(=S)N/N=C/c1ccccn1
> 22.6 µM

Provide TGI value for the following compound: C/C(=C(/c1ccc(O)cc1)c1ccc(Cl)cc1)c1ccccc1
1.69 µM

Data origin, for the record: PubChem BioAssay (NCI)
